# System: MV4-11 (leukemia) cells
# Experiment notes: In vitro cell proliferation inhibition assay (CellTiter-Glo), MV4-11
# Assay type: cell-based, human
# Conditions: Homo sapiens, MV4-11, 120 h, MV4-11 cells
Measured metric: IC50 (µM)

Worked examples, 3 compounds total:
Please look up its IC50: Cc1c(-c2cc(N3CCOC[C@H]3C)nc(-c3cncc4[nH]ccc34)n2)c(C(F)(F)F)nn1C1CCNCC1
0.07

Please look up its IC50: Cc1c(-c2cc(N3CCOC[C@H]3C)nc(-c3ccnc4[nH]ccc34)n2)c(C(F)(F)F)nn1C1CCCNC1 (single isomer, unassigned) [Compound D13]
0.25

Please look up its IC50: Cc1nn([C@@H]2CCNCC2(F)F)c(C)c1-c1cc(N2CCOC[C@H]2C)nc(-c2cc(F)cc3[nH]ccc23)n1 [Compound D54b]
0.26

P = Cc1nn(C2CCNCC2)c(C(F)(F)F)c1-c1cc(N2CCOC[C@H]2C)nc(-c2cccc3[nH]ccc23)n1
Q = CC(=O)Nc1nc2ccccc2n1-c1nc(-c2c(C)nn(C3CCNCC3)c2C(F)(F)F)cc(N2CCOC[C@H]2C)n1
Lab log: flag the item ( P or Q ) with the smaller IC50 figure. Indicate your choice by writing its label.
P
